System: LoVo/DX
assay_info: cells
Type: cell-based, human
protocol_conditions: Homo sapiens, LoVo/DX, 72 h, read-out: LoVo/DX IC50 (nM), 72 h exposure, SRB, mean ± SD
Protocol: The A549 and MCF7 cell lines were purchased from the European Collection of Authenticated Cell Cultures (ECACC, Salisbury, U.K., 86012804 and 86012803). […] After 72 h of incubation with the tested compounds, the cells were fixed in situ by gently adding cold 50% trichloroacetic acid (TCA) (POCh, Poland) and were incubated at room temperature for 1 h. […] Absorbance of each solution was read at Synergy H4 Hybrid Multi-Mode Microplate Reader (BioTek Instruments) at the 540 nm wavelength. […]
reported_metric: IC50 (nM)
# value in nM; strip the unit string

# mol, reported_metric, uom, quantitative_result
data = [
    ("CNc1ccc2c(cc1=O)[C@@H](n1cc(COC(=O)CCNC(=O)OC(C)(C)C)nn1)CCc1cc(OC)c(OC)c(OC)c1-2", "IC50", "nM", 700),
    ("CNc1ccc2c(cc1=O)[C@@H](n1cc(C(=O)OC)nn1)CCc1cc(OC)c(OC)c(OC)c1-2", "IC50", "nM", 280),
    ("CNc1ccc2c(cc1=O)[C@@H](n1cc(COCc3ccccc3)nn1)CCc1cc(OC)c(OC)c(OC)c1-2", "IC50", "nM", 84),
]

Request: Please look up its IC50: CNc1ccc2c(cc1=O)[C@@H](n1cc(CNC(=O)c3ccncc3)nn1)CCc1cc(OC)c(OC)c(OC)c1-2
Result: 9100

Request: Would you kindly repeat that for CCOC(=O)NCc1cn([C@H]2CCc3cc(OC)c(OC)c(OC)c3-c3ccc(NC)c(=O)cc32)nn1 ?
Result: 840

Request: Would you kindly repeat that for CNc1ccc2c(cc1=O)[C@@H](n1cc(CNC(=O)OCC(Cl)(Cl)Cl)nn1)CCc1cc(OC)c(OC)c(OC)c1-2 ?
Result: 470

Hello, the source for this data is paper PMC8515607, in case you need it.
